Let's look at some molecules and their measured IC50.
System: HeLa
method: cells
test-conditions: Homo sapiens, 48 h
Description: Cytotoxicity against human HeLa cells after 48 hrs by MTT assay
Hi! Could you send only the number? It should be in µg/mL, unit omitted.

COc1ccccc1C1CC([C@H]2CC[C@H]3[C@@H]4CCC5=C(Cl)C(=O)C=C[C@]5(C)[C@H]4CC[C@]23C)=NN1C(C)=O (mixture of isomers)
15.3

GET /values?item= COc1ccc(C2CC([C@H]3CC[C@H]4[C@@H]5CCC6=C(Cl)C(=O)C=C[C@]6(C)[C@H]5CC[C@]34C)=NN2C(C)=O)cc1 (mixture of isomers) &system= HeLa returns IC50: 19.7

###

Tested on: HepG2
method: Cytotoxicity against human HepG2 cells after 48 hrs by MTT assay
Format: functional, cell-based
test-conditions: HepG2, 48 h
Threshold-based label: IC50 under 20 µg/mL gives criterion met, IC50 not under 20 µg/mL gives criterion not met.

For this molecule, is IC50 lower than 20 µg/mL? CC(=O)N1N=C([C@H]2CC[C@H]3[C@@H]4CCC5=C(Cl)C(=O)C=C[C@]5(C)[C@H]4CC[C@]23C)CC1c1ccccc1Cl (mixture of isomers)
criterion not met

For this molecule, is IC50 lower than 20 µg/mL? COc1ccccc1C1CC([C@H]2CC[C@H]3[C@@H]4CCC5=C(Cl)C(=O)C=C[C@]5(C)[C@H]4CC[C@]23C)=NN1C(C)=O (mixture of isomers)
criterion met

For this molecule, is IC50 lower than 20 µg/mL? CC(=O)N1N=C([C@H]2CC[C@H]3[C@@H]4CCC5=C(Cl)C(=O)C=C[C@]5(C)[C@H]4CC[C@]23C)CC1c1ccccc1[N+](=O)[O-] (stereo partly drawn)
criterion not met

For this molecule, is IC50 lower than 20 µg/mL? CC(=O)N1N=C([C@H]2CC[C@H]3[C@@H]4CCC5=C(Cl)C(=O)C=C[C@]5(C)[C@H]4CC[C@]23C)CC1c1ccc([N+](=O)[O-])cc1 (stereo partly drawn)
criterion not met

###

Test system: NCI-H460
method: Cytotoxicity against human NCI-H460 cells after 48 hrs by MTT assay
Assay type: functional, cell-based
test-conditions: NCI-H460, 48 h
reported-property: IC50 (µg/mL)
Hi! Could you send only the number? It should be in µg/mL, unit omitted.

O=c1[nH]cc(F)c(=O)[nH]1 [FLUOROURACIL]
2.48
CC(=O)N1N=C([C@H]2CC[C@H]3[C@@H]4CCC5=C(Cl)C(=O)C=C[C@]5(C)[C@H]4CC[C@]23C)CC1c1ccc(Cl)cc1 (stereo partly drawn)
13.9

Value of IC50 reported for the compound COc1ccccc1C1CC([C@H]2CC[C@H]3[C@@H]4CCC5=C(Cl)C(=O)C=C[C@]5(C)[C@H]4CC[C@]23C)=NN1C(C)=O (mixture of isomers) is 15.7

###

Test system: Artemia salina
method: Toxicity in Artemia salina larvae after 24 hrs by microscopic analysis
Format: functional
Threshold-based label: LC50 under 8 µg/mL gives Y, LC50 not under 8 µg/mL gives N.

Before answering, review these 5 worked examples.
CC(=O)N1N=C([C@H]2CC[C@H]3[C@@H]4CCC5=C(Cl)C(=O)C=C[C@]5(C)[C@H]4CC[C@]23C)CC1c1ccccc1 (stereo not given in full)
Y
CC(=O)N1N=C([C@H]2CC[C@H]3[C@@H]4CCC5=CC(=O)C=C[C@]5(C)[C@H]4CC[C@]23C)CC1c1ccc(Cl)cc1 (stereo not given in full)
N
CC(=O)N1N=C([C@H]2CC[C@H]3[C@@H]4CCC5=C(Cl)C(=O)C=C[C@]5(C)[C@H]4CC[C@]23C)CC1c1ccccc1[N+](=O)[O-] (stereo not given in full)
Y
CC(=O)N1N=C([C@H]2CC[C@H]3[C@@H]4CCC5=CC(=O)C=C[C@]5(C)[C@H]4CC[C@]23C)CC1c1ccccc1 (stereo not given in full)
N
CC(=O)[C@H]1CC[C@H]2[C@@H]3CCC4=C(Cl)C(=O)C=C[C@]4(C)[C@H]3CC[C@]12C
N

For this compound, is LC50 lower than 8 µg/mL? CC(=O)N1N=C([C@H]2CC[C@H]3[C@@H]4CCC5=C(Cl)C(=O)C=C[C@]5(C)[C@H]4CC[C@]23C)CC1c1ccc(Cl)cc1 (stereo not given in full)
N

For this compound, is LC50 lower than 8 µg/mL? CC(=O)N1N=C([C@H]2CC[C@H]3[C@@H]4CCC5=C(Cl)C(=O)C=C[C@]5(C)[C@H]4CC[C@]23C)CC1c1ccccc1Cl (mixture of isomers)
Y

For this compound, is LC50 lower than 8 µg/mL? COc1ccccc1C1CC([C@H]2CC[C@H]3[C@@H]4CCC5=C(Cl)C(=O)C=C[C@]5(C)[C@H]4CC[C@]23C)=NN1C(C)=O (mixture of isomers)
N

For this compound, is LC50 lower than 8 µg/mL? CC(=O)[C@H]1CC[C@H]2[C@@H]3CCC4=CC(=O)CC[C@]4(C)[C@H]3CC[C@]12C
N

For this compound, is LC50 lower than 8 µg/mL? COc1ccc(C2CC([C@H]3CC[C@H]4[C@@H]5CCC6=CC(=O)C=C[C@]6(C)[C@H]5CC[C@]34C)=NN2C(C)=O)cc1 (stereo not given in full)
N
